Test Target: full length (mature) cynomolgus monkey TSLP, recombinant (cynomolgus monkey)
Test Protocol: ELISA RBA, geometric mean
I'd appreciate it if you could supply pIC50 values for the items below.
pIC50 is a log-scale quantity: -log10 of the concentration expressed in molar.

// fetch pIC50 given entry DOM30h-440-54 (protein) VL: DIQMTQSPSSLSASVGDRVTITCRASRPIRNWLDWYQQKPGKAPKLLIWGASHLQSGVPSRFSGSGSGTDFTLTISSLQPEDFATYYCWQLAFDPTTFGQGTKVEIKR 9.17

# return recorded pIC50 for input DOM30h-440-53 (protein) VL: DIQMTQSPSSLSASVGDRVTITCRASRPIRNWLDWYQQKPGKAPKLLIWGASHLQSGVPSRFSGSGSGTDFTLTISSLQPEDFATYYCLQVGEDPVTFGQGTKVEIKR 8.89

Look up pIC50 of DOM30h-440-63 (protein) VL: DIQMTQSPSSLSASVGDRVTITCRASRPIRNWLDWYQQKPGKAPKLLIWGASHLQSGVPSRFSGSGSGTDFTLTISSLQPEDFATYYCMQIGSDPVTFGQGTKVEIKR and report it. 9.08

Give the value of pIC50 reported for the following: DOM30h-440-65 (protein) VL: DIQMTQSPSSLSASVGDRVTITCRASRPIRNWLDWYQQKPGKAPKLLIWGASHLQSGVPSRFSGSGSGTDFTLTISSLQPEDFATYYCMQIGEDPVTFGQGTKVEIKR 9.54
